Target: T1, SYNJ2BP, P57105
T1 sequence (P57105 8-110, limits assumed, looked up): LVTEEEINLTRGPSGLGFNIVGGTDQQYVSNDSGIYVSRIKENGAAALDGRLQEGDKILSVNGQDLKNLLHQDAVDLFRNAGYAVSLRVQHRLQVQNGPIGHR
Test: holdup assay
Design: key: below the threshold = too weak to quantify, mostly under pKd 3.1 to 4
Settings: plain residues with an end cap or a label only (N-terminal biotin on a linker: ado-ado)
measured quantity: pKd
// print number alone

q: Report pKd for NISYRRESAI [KCNJ4, P48050] please.
a: 4.84

q: // pKd lookup, key: DGVNEKVSCV [HTR2A, P28223]
a: 4.3

q: // lookup pKd for NIAESLESLV [PTPRZ1, P23471]
a: 4.83

q: I have this binder here, PSHPRLQTHV [KIRREL2, Q6UWL6] , and I need its recorded pKd.
a: 4.48

q: For ELSATVTTDC [TRIP6, Q15654] , what is its reported pKd?
a: 4.68

q: Looking for the measured pKd of AQRARSPSDV [GPR12, P47775] , can you help?
a: 4.14

q: Consider the binder QSGLYESEEL [MYOT, Q9UBF9] and give its measured pKd.
a: 3.59
